# System: SR leukemia
# Procedure Details: NCI tumour cell line growth inhibition, 48 h; in the data active = GI50 below about 0.43 µM; inactive = the rest
Bench note: report the call from YES for active, NO for inactive

Ask: Hi team, can someone confirm the assay call for COC(=O)C(C(=O)OC)C(Br)C(Br)C(Br)c1ccccc1 (centres undefined) ?
Result: NO

Ask: State the result this test recorded for CC(=O)/C=C/c1ccc(OCc2ccc(Cl)cc2)cc1 .
Result: NO

Ask: # lookup: test call for Nc1nc(N)c2nc3c(nc2n1)CCCCCCCCCC3
Result: NO

Ask: Test call for this compound, please: Cc1cccc2c3c(sc12)C(c1ccc(F)cc1)C(C#N)=C(N)O3 (centres undefined)
Result: YES

Ask: Hey, what did the test say about O=C1N(Cc2ccccc2Cl)c2ccccc2C12NN=C(c1cccc(Cl)c1)S2 (centres undefined) ?
Result: NO

Ask: Record request — test call for COc1cc2c(c(OC)c1OC)-c1ccc(N=NC(N)=S)c(=O)cc1[C@@H](NC(C)=O)CC2
Result: YES

Ask: For this compound, state the assay outcome: Cn1cc(C2=C(Nc3ccccc3)C(=O)NC2=O)c2ccccc21
Result: NO

Ask: I'd appreciate the recorded outcome for CCCCCCNCc1cc(C(C)(C)C)cc(CNCCCCCC)c1O from this test.
Result: NO

Ask: Per the assay record, what outcome was assigned to Cc1[nH]c2cc(F)ccc2c1-c1nc2c3cccnc3c3ncccc3c2[nH]1 ?
Result: YES

Ask: // param item: CN(CCC(=O)/C(=C\c1ccccc1)c1ccc(Cl)cc1)Cc1ccccc1 ; yields the recorded call
Result: NO

Ask: GET /call?item= CN1CCN(c2nc(-c3csc(-c4cccs4)n3)cc3ccccc23)CC1 returns the recorded outcome of this test.
Result: NO

Ask: Given COc1ccc(-c2c3c(nc4n[nH]c(-c5ccc(Cl)cc5)c24)-c2ccccc2C(=O)C3=O)cc1 , state the outcome it received in this test.
Result: NO

Ask: Record request — test call for C[C@@H](CO)NC(=O)c1cc(-c2ccc(Cl)cc2)nn(-c2cnn(C)c2)c1=O
Result: NO

Ask: Just curious, what result did COc1ccc(-c2csc(NC(=O)CN3CCN(c4cc5c(cc4F)c(=O)c(C(=O)O)cn5C4CC4)CC3)n2)cc1 get here?
Result: NO

---

Can you tell me TGI for the items I'm about to list?
# Tested on: MDA-N
# Procedure Details: NCI tumour cell line growth inhibition, 48 h

TGI on MDA-N for COc1cc(OC)c2c(c1)OC(c1cccnc1)C(c1ccccc1)C2=O (stereo not drawn) is > 100 µM

Bench note, MDA-N: C=C1C(=O)O[C@H]2C[C@@H]1[C@@H](O)[C@H](O)[C@@H](C)CCCC(C)=CCC[C@@]2(C)O , TGI reads 54.6 µM

Item Cc1ccc(C2(c3ccc(F)cc3)OC(=O)c3ccccc32)c(O)c1 (stereo not drawn) ; assay system MDA-N; TGI reported as 24.3 µM

Reading of TGI for CCOC(=O)C1(C#N)CC1 with MDA-N: > 100 µM

Observed TGI on MDA-N, entry CN(CCNC(=O)c1c[nH]c2c1Cc1ccccc1-2)CCNC(=O)c1c[nH]c2c1Cc1ccccc1-2 , equals 33.9 µM

Reported TGI (MDA-N) for entry Cn1cc(S(=O)(=O)NC(=O)Nc2ccc(Cl)cc2)c(=O)c2ccc(F)cc21 is > 100 µM

The molecule Cc1c2c(n(CC(c3ccccc3)c3ccccc3)c1C)NN=C(C#N)S2(=O)=O on MDA-N: TGI was > 100 µM

Entry O=C(Nc1ccc(S(=O)(=O)/N=c2\ncccn2C(=O)C(C(F)(F)F)C(F)(F)F)cc1)C(C(F)(F)F)C(F)(F)F , MDA-N data, TGI value: > 100 µM

I looked up CC(C)(C)N/N=C(\C(=O)NC1=C(Cl)C(=O)c2ccccc2C1=O)C1C=CCS1(=O)=O (stereo not drawn) and its TGI for MDA-N was 6.33 µM

Query C(#CP(c1ccccc1)c1ccccc1)P(C#CP(c1ccccc1)c1ccccc1)c1ccccc1 on MDA-N; TGI returned: > 100 µM

Test item COC(=O)Nc1nc2ccc(S(=O)(=O)N3CCOCC3)cc2[nH]1 ; MDA-N; reported TGI was > 100 µM

Considering CC1OC(OC2C(O[C@H]3CC[C@@]4(C)C(=CC[C@H]5[C@@H]6C[C@@H]7O[C@]8(CC[C@@H](C)CO8)[C@@H](C)[C@@H]7[C@@]6(C)CC[C@@H]54)C3)OC(CO)C(O)C2O)C(O)C(O)C1O (stereo partly drawn) , its TGI with MDA-N was recorded as 6.54 µM

Entry CC1OC2OC3C(OCC(O)C3O)OC(=O)[C@]34CCC(C)(C)CC3C3=CCC5[C@@]6(C)C[C@H](O)[C@H](OC7OC(CO)C(O)C(O)C7OC7OCC(OC(=O)CC(C)(O)CC(=O)OC1C(O)C2O)C(O)C7O)[C@@](C)(CO)C6CC[C@@]5(C)[C@]3(C)CC4 (stereo partly drawn) , MDA-N data, TGI value: 13.8 µM
